target_system: pooled human IgG (human IgG1, 2, 3 and 4)
Parameter threshold = 400 ng/µL. Response is met when Enzyme Activity Endpoint Assay (purified): Fc meets or exceeds it, else not met.

See these solved cases before continuing.
PRT-516 (protein) MITSVWTKGVTPPTDFIKGEDVFHAPYKAGQGWYDITKAFDGGDDLLCGAATAGNMLHWWFDQNKEEIEAYLKKHPEKQKIMFGDQELLDVRKVINTKDSQTNSALFNYFKDKAFPNLSARRLGVMPDLVLDMFINGYYLNVYKTQTTDVNRTYQTKDRRGGIFDAVFTRGDQSKLLTERHDLKNKTLNEISQLIKQELTEGKALGLSHTYANVRINHVINLWGADFDAEGNLEAIYVTDSDSNASIGMKKYFVGVNSAGKVAISAKEIKEDNIGAQVLGLFTLSTGQDIWNQTNLEHHHHHH :: not met
PRT-619 (protein) MQITTVWTKGVTPLTPEQFRYNNEDVIHAPYLAHQGWYDITKAFDGKDNLLCGAATAGNMLHWWFDQNKTEIEAYLSKHPEKQKIIFNNQELFDLKAAIDTKDSQTNSQLFNYFRDKAFPNLSARQLGVMPDLVLDMFINGYYLNVFKTQSTDVNRPYQDKDKRGGIFDAVFTRGDQTTLLTARHDLKNGGLEDISTIIKQELKNGRALALSHTYANVSISHVINLWGADFNAEGNLSAIYVTDSDANASIGMKKYFVGINAHGHVAISAKKIEGENIGAQVLGLFTLSSGKDIWQKLSLEHHHHHH :: not met
PRT-641 (protein) MQITSVWTKGVTPLTPEQFRYNNEDVIHAPYLAHQGWYDITKTMNGKDDLLCGAATAGNMLHWWFDQNKTEIEAYLSKHPEKQKIIFNNQELFDLKAAIDTKDSQTNSQLFNYFRDKAFPNLSARQRGVMPDLVLDMFINGYYLNVFKTQSTDVNRPYQDKDKRGGIFDAVFTRGDQTTLLTARHDLKNKGLNDISTIIKQELTEGRALALSHTYANVSISHVINLWGADFNAEGNLEAIYVTDSDARENIGMKKYFVGINAHGHVAISAKKIEGENIGAQVLGLFTLSSGKDIWQKLSLEHHHHHH :: not met

[in] Is it the case that PRT-461 (protein) MVTSVWTKGVTPPTDFRKIVDGNIAYYHAPYKAGQGWYDITKTFNGKDDLLCGAATAGNMLHWWFDQNKDQIERYLKEHPEKQKINFNGEQMFDVKEAIDTKDSQTDSKLFEYFKEKAFPYLSTKHLGVFPDHVLDMFINGYRLSLTNHGPTPVKEGSKDPRGGIFDAVFTRGDQSKLLTSRHDFKEKTLKEISDLIKQELTEGKALGLSHTYANVRINHVINLWGADFDSEGNLKAIYVTDSDSNASIGMKKYFVGVNSAGKVAISAKEIKEDNIGAQVLGLFTLSTGQDIWNQTNLEHHHHHH has Enzyme Activity Endpoint Assay (purified): Fc reaching or exceeding 400 ng/µL?
[out] not met

[in] Is it the case that PRT-392 (protein) MVTSVWTKGVTPPTNFTYGEDVLHAPYVANQGWYDITKTFNGKDDLLCGAATAGNMLHWWFDQNKEQIENYLKKHPEKQKINFNGEQMFDVKEAIDTKDSQLDSKLFEYFKEKAFPYLSTKHLGVFPDHVIDMFINGYRLSLTNHGPTPVKRGSKDPRGGIFDAVFTRGVQSKLLTNRHDFKEKTLKEISDLIKQELTEGKALGISHTYANVRINHVINLWGADFDAEGNLEAIYVTDSDSNASIGMKKYFVGVNSNGKVAISAKEIEEDNIGAQVLGLFTLSTGQDIWNQTN has Enzyme Activity Endpoint Assay (purified): Fc reaching or exceeding 400 ng/µL?
[out] not met

[in] Is it the case that PRT-684 (protein) MQITSVWTKGVTPLTPEQFTNNNEDVIHAPYLANQGWYDITKTFNGKDNLLCGAATAGNMLHWWFDQNKEEIEAYLKKHPEKQKIIFNNQELFDLKKAIDTKDSQTNSALFNYFRDKAFPNLSARQLGVMPDLVLDMFINGYYLNVFKTQSTDVNRPYQTKDKRGGIFDAVFTRGDQTTLLTARHDLKNKGLNEISDIIKQELTEGKALALSHTYANVSISHVINLWGADFNAEGNLIAIYVTDSDANASIGMKKYFVGVNSHGKVAISAKKIEGENIGAQVLGLFTLSSGQDIWQKLSLEHHHHHH has Enzyme Activity Endpoint Assay (purified): Fc reaching or exceeding 400 ng/µL?
[out] met

[in] Is it the case that PRT-690 (protein) MQITSVWTKGVTPPTPEQFRYNNEDVIHAPYLANQGWYDITKTFNGKDNLLCGAATAGNMLHWWFDQNKTEIEAYLSKYPEKQKIIFNNQELFDLRAAINTKDSQTNSQLFNYFRDKAFPNLSARQLGVMPDLVLDMFINGYYLNVFKTQSTDVNRPYQDKDKRGGIFDAVFNRGDQTTLLTARHDLKNKTLNDISTLIKQELSSGKALALSHTYANVSISHVINLWGADFNAEGNLEAIYVTDSDANSNIGMKKYKVGVNAHGKVAISAKKIEGENIGAQVLGLFTLSSGKDIWQKLSLEHHHHHH has Enzyme Activity Endpoint Assay (purified): Fc reaching or exceeding 400 ng/µL?
[out] met
